# IC50 annotations
biological target: HO-1 (rat spleen) (Rattus norvegicus, UniProt P06762); construct: Spleen microsomes were used as a source of HO-1; from tissue; host or cells: spleen microsomal fraction of adult male Sprague-Dawley rats; experiment: HO enzymatic activity in rat spleen microsomal fraction (CO formed from methemalbumin, gas chromatography); type: biochemical; conditions: rat spleen microsomes; average ± standard deviation of replicate experiments; read-out: IC50 HO-1 (rat spleen)/μM
Sequence (P06762 whole entry): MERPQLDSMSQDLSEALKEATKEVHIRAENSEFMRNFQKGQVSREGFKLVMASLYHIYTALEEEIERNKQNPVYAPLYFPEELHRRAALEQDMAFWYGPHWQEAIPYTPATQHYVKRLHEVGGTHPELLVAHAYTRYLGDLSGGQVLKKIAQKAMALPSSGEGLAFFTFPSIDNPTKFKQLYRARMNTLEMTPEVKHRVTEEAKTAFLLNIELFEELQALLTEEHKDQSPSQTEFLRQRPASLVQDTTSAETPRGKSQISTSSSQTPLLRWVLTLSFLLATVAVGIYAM
Structures can show the parent of a compound that is named as a salt.
ASSAY_ENDPOINT: IC50 (µM)

- c1ccc(SCCn2ccnc2)cc1 [hydrochloride]: 6
- O=C(Cn1cncn1)c1ccc(Br)cc1: 2.7
- FC(F)(F)c1ccc(SC[C@@H]2CO[C@@](CCc3ccc(Cl)cc3)(Cn3ccnc3)O2)nc1 [hydrochloride]: 2.1
- O=C(CCc1ccc(OC(=O)c2ccccc2)cc1)Cn1ccnc1 [hydrochloride]: 6.7
